A collection of binders and their measured EC50 hGLP1R 0.5% hP (CreLuc)
TARGET OR SYSTEM: GLP-1 receptor (human (printed as hGLP1R), UniProt P43220 24-463)
TEST: cell-based or functional assay
Starred links: 1 amine or outer side, 2 acyl side, 3 side chain; linkers in the order of their positions; H or OH if unused. Non-standard residues stand in square brackets, D forms with d. Groups on a side chain read outwards from the residue. No end group written: not given here. *: point of attachment. C20 diacid = O=C(O)CCCCCCCCCCCCCCCCCCC(=O)*; γGlu = O=C(O)[C@H](CCC(=O)[*:2])N[*:1]; εLys = N[C@@H](CCCCN[*:1])C(=O)[*:2]; AEEA = NCCOCCOCC(=O)O; Aib = CC(C)(N)C(=O)O
REPORTED PROPERTY: EC50 hGLP1R 0.5% hP (CreLuc) (nM)

[[record]]
binder = "Y[Aib]EGTFTSDYSI[Aib]LEKQAQ[Aib]AFVQWLIK([εLys-γGlu-γGlu-γGlu-γGlu-γGlu-C20 diacid])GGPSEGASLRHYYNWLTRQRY-NH2 (also: TFA salt) [Compound 242]"
reported_property = "EC50 hGLP1R 0.5% hP (CreLuc)"
value = 0.13

[[record]]
binder = "Y[Aib]EGTFTSDYSI[Aib]LEKQAQ[Aib]AFVEWLIKGGPSSGVSLRHYYNWLTRQRY-NH2 (not fully specified (residue 28); also: TFA salt) [Compound 212]"
reported_property = "EC50 hGLP1R 0.5% hP (CreLuc)"
value = 0.11

[[record]]
binder = "Y[Aib]EGTFTSDYSI[Aib]LEKQAE[Aib]AFVQWLIK([AEEA-AEEA-γGlu-γGlu-γGlu-γGlu-C20 diacid])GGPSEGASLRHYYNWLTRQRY-NH2 (also: TFA salt) [Compound 219]"
reported_property = "EC50 hGLP1R 0.5% hP (CreLuc)"
value = 0.61

[[record]]
binder = "YXEGTFTSDYSIXLEKQAQXAFVEWLIKGGPSSGASLRHYXNWLTRQRY (Aib at 2, 13, 20, 41; K28 side chain carries C20DA-gGlu-gGlu-gGlu-gGlu-gGlu-gGlu-eLys; C-terminal amide) [Compound 184]"
reported_property = "EC50 hGLP1R 0.5% hP (CreLuc)"
value = 0.18

